tested on: serum IgG autoantibodies; experiment: ELISA for autoantibody detection: serum antibody binding to native and oxPTM insulin peptides; set-up: species or system human; conditions: Study cohort 1 sera; in house modifications
Where no end group is shown, it is not given here.
The entries below come with measured Mean ± SEM (absorbance, OD), Type 1 diabetes values attached.
READOUT KIND: Mean ± SEM (absorbance, OD), Type 1 diabetes

{"SUBSTANCE": "SLYQLENYCN (Ac-SLYQLENYCN) [insulin A:12-21 native peptide]", "MEASURED": 0.405}
{"SUBSTANCE": "INSP-4 oxPTM-•OH: INSP-4 peptide oxidised in house by hydroxyl radical (LVEALYLVCGERGFFYTPKT; also: oxidised by hydroxyl radical, modified residues not defined)", "MEASURED": 0.539}
{"SUBSTANCE": "INSP-6 oxPTM-HOCI: INSP-6 peptide oxidised in house by HOCl (ERGFFYTPKT; not fully specified (N-terminus); also: oxidised by HOCl, modified residues not defined)", "MEASURED": 0.391}
{"SUBSTANCE": "LVEALYLVCGERGFFYTPKT [insulin B:11-30 native peptide]", "MEASURED": 0.469}
{"SUBSTANCE": "INSP-3 oxPTM-HOCI: INSP-3 peptide oxidised in house by HOCl (SLYQLENYCN; not fully specified (N-terminus); also: oxidised by HOCl, modified residues not defined)", "MEASURED": 0.473}
{"SUBSTANCE": "INSP-6 oxPTM-•OH: INSP-6 peptide oxidised in house by hydroxyl radical (ERGFFYTPKT; not fully specified (N-terminus); also: oxidised by hydroxyl radical, modified residues not defined)", "MEASURED": 0.461}
{"SUBSTANCE": "INSP-4 oxPTM-HOCI: INSP-4 peptide oxidised in house by HOCl (LVEALYLVCGERGFFYTPKT; also: oxidised by HOCl, modified residues not defined)", "MEASURED": 0.563}
{"SUBSTANCE": "ERGFFYTPKT (Ac-ERGFFYTPKT) [insulin B:21-30 native peptide]", "MEASURED": 0.435}
{"SUBSTANCE": "INSP-3 oxPTM-•OH: INSP-3 peptide oxidised in house by hydroxyl radical (SLYQLENYCN; not fully specified (N-terminus); also: oxidised by hydroxyl radical, modified residues not defined)", "MEASURED": 0.667}
